System: HL-60
assay-overview: cell viability (% survival relative to DMSO control); higher = less cytotoxic
test-conditions: 0.1 µM; 72 h; co-treatment: AZD3965 100 nM
Counter-ions that a name gives are not always drawn.
cell viability listing for selected molecules.
The answer is to be given in %; state only the numeric part.

C[C@H]1c2cccc(O)c2C(=O)C2C(=O)[C@]3(O)C(=O)C(C(N)=O)C(=O)[C@@H](N(C)C)[C@@H]3[C@@H](O)[C@@H]21 (some centres not stated) = 99.6
O=C1C(SCCO)=C(SCCO)C(=O)c2ccccc21 = 104
CC(C)(C)c1ccc(S(=O)(=O)NCc2ccc(C(=O)Nc3cccnc3)cc2)cc1 = 94.3
CCN(CCO)CCCC(C)Nc1ccnc2cc(Cl)ccc12 (configuration not stated) [Hydroxychloroquine sulfate] = 105
C[C@]12C=CC(=O)C=C1CC[C@@H]1[C@@H]2[C@@H](O)C[C@@]2(C)[C@H]1CC[C@]2(O)C(=O)CO = 103
N[C@@H](CC(=O)N1CCn2c(nnc2C(F)(F)F)C1)Cc1cc(F)c(F)cc1F = 103

Okay, now this molecule:
Respond only with cell viability recorded for `Cc1[nH]nc(C(F)(F)F)c1Cc1sc2c(c1C(=O)N1C[C@](C)(O)CO1)c(=O)n(C)c(=O)n2C(C)C`
96

---

Test system: MV4-11
assay-overview: cell viability (% survival relative to DMSO control); higher = less cytotoxic
test-conditions: drug1 concentration 1000 nM; drug2 concentration 100 nM; 72 h
Quick list: cell viability per entry.
Answer with a number only, understood to be in %.

Field: example entries. Status: answers known.
CN(CCOc1ccc(Cc2sc(O)nc2O)cc1)c1ccccn1 [Rosiglitazone] + c1cc(-c2cnn3cc(-c4ccc(OCCN5CCCCC5)cc4)cnc23)ccn1 [Dorsomorphin] = 85.3
CCn1c(=Cc2cccc[n+]2CC)sc(=C2Sc3ccccc3N2C)c1=O [MKT 077] + CN(C)CCNC(=O)c1cccn2c(=O)c3cc4ccccc4cc3nc12 = 69.7

Under MV4-11: report cell viability of O=C(O)CC[N+](=O)[O-] [3-nitropropionic acid] + CCn1c(=Cc2cccc[n+]2CC)sc(=C2Sc3ccccc3N2C)c1=O .
88.2

---

Readings of cell viability for the listed compounds
Test system: myeloid leukemia patient primary cells Pat.3
assay-overview: cell viability (% survival relative to DMSO control); higher = less cytotoxic
test-conditions: 100 nM; 72 h
Could you give me the number in %? Just the number is fine.

C=CCN(C)CCCCCCOc1ccc(C(=O)c2ccc(Br)cc2)c(F)c1.O=C(O)/C=C/C(=O)O [Ro 48-8071 fumarate] = 28.2
Cc1cc2c(C(C)C)c(O)c(O)c(C=O)c2c(O)c1-c1c(C)cc2c(C(C)C)c(O)c(O)c(C=O)c2c1O [Gossypol] = 70.6
O=C(O)CC[N+](=O)[O-] [3-nitropropionic acid] = 99.8
C[C@]12C=CC(=O)C=C1CC[C@@H]1[C@@H]2[C@@H](O)C[C@@]2(C)[C@H]1CC[C@]2(O)C(=O)CO [Prednisolone] = 73.9

Let us examine a further case.
Give measured cell viability for CC(C)(C)c1ccc(S(=O)(=O)NCc2ccc(C(=O)Nc3cccnc3)cc2)cc1 [STF-31] (myeloid leukemia patient primary cells Pat.3).
6.65

---

System: Mono-Mac-6
assay-overview: cell viability (% survival relative to DMSO control, bortezomib = 0%); higher = less cytotoxic
test-conditions: 10 nM; 72 h
Quick reference: cell viability of the listed items.
Numbers only here, please. The scale is %.

Determine its reported cell viability: CC(=O)Nc1nc(C)c(-c2ccc(Cl)c(S(=O)(=O)NCCO)c2)s1 [PIK93]
90.9

Answer with the recorded cell viability of CC/C=C\C[C@H]1C(=O)CC[C@@H]1CC(=O)OC [Methyl jasmonate] only.
101

// Input: N#C/C(=C\c1ccc(O)cc1)C(=O)O [alpha-cyano-4-hydroxycinnamic acid] . Output its cell viability only.
101

Return reported cell viability. Input molecule: O=c1c(-c2ccc(O)cc2)coc2cc(O[C@@H]3O[C@H](CO)[C@@H](O)[C@H](O)[C@H]3O)ccc12 [Daidzin]
88.2

---

Test system: myeloid leukemia patient primary cells Pat.1
assay-overview: cell viability (% survival relative to DMSO control); higher = less cytotoxic
test-conditions: 100 nM; 72 h
Quick rule for you: cell viability under 90% gets met, anything else gets not met.

c1cc(-c2cnn3cc(-c4ccc(OCCN5CCCCC5)cc4)cnc23)ccn1 [Dorsomorphin] = met
O=c1cc(N2CCOCC2)oc2c(-c3ccccc3)cccc12 = met
Cc1[nH]nc(C(F)(F)F)c1Cc1sc2c(c1C(=O)N1C[C@](C)(O)CO1)c(=O)n(C)c(=O)n2C(C)C [AZD3965] = not met
CN1CCN(CCCN2c3ccccc3Sc3ccc(C(F)(F)F)cc32)CC1 [Trifluoperazine] = not met

I'd appreciate it if you could check whether O=C(O)CC[N+](=O)[O-] [3-nitropropionic acid] has cell viability smaller than 90%.
not met

---

Reported cell viability values for a set of molecules
Test system: myeloid leukemia patient primary cells Pat.11
assay-overview: cell viability (% survival relative to DMSO control); higher = less cytotoxic
test-conditions: 10 nM; 72 h
Please give a number only; it is taken to be in %.

Cn1cc(-c2ccncc2)c(-c2ccc(OCc3ccc4ccccc4n3)cc2)n1 = 98.1
CN(Cc1cnc2nc(N)nc(N)c2n1)c1ccc(C(=O)N[C@@H](CCC(=O)O)C(=O)O)cc1 [Methotrexate] = 98.4
CN1CCN(CCCN2c3ccccc3Sc3ccc(C(F)(F)F)cc32)CC1 [Trifluoperazine] = 100
CO[C@H]1C[C@@H]2CC[C@@H](C)[C@@](O)(O2)C(=O)C(=O)N2CCCC[C@H]2C(=O)O[C@H]([C@H](C)C[C@@H]2CC[C@@H](OC(=O)C(C)(CO)CO)[C@H](OC)C2)CC(=O)[C@H](C)/C=C(\C)[C@@H](O)[C@@H](OC)C(=O)[C@H](C)C[C@H](C)/C=C/C=C/C=C/1C [Temsirolimus] = 81.9
CC(C)(C)c1ccc(S(=O)(=O)NCc2ccc(C(=O)Nc3cccnc3)cc2)cc1 [STF-31] = 92.3

Pending molecule:
Recall and state the measured cell viability for Cc1cc2c(C(C)C)c(O)c(O)c(C=O)c2c(O)c1-c1c(C)cc2c(C(C)C)c(O)c(O)c(C=O)c2c1O [Gossypol] .
98.9

---

System: MV4-11
assay-overview: cell viability (% survival relative to DMSO control, bortezomib = 0%); higher = less cytotoxic
test-conditions: 1 nM; 72 h
Here, each record is paired with measured cell viability data.
Express your answer in %, writing the number without its unit.

Answered examples (2):
CC(C)CC(=O)N[C@H](C(=O)N[C@H](C(=O)N[C@@H](CC(C)C)[C@@H](O)CC(=O)N[C@@H](C)C(=O)N[C@@H](CC(C)C)[C@@H](O)CC(=O)O)C(C)C)C(C)C = 87.7
O=C(/C=C/c1ccc(O)c(O)c1)OCCc1ccccc1 = 94.5

Turning to the following molecule.
// fetch cell viability for `CO[C@H]1C[C@@H]2CC[C@@H](C)[C@@](O)(O2)C(=O)C(=O)N2CCCC[C@H]2C(=O)O[C@H]([C@H](C)C[C@@H]2CC[C@@H](OCCO)[C@H](OC)C2)CC(=O)[C@H](C)/C=C(\C)[C@@H](O)[C@@H](OC)C(=O)[C@H](C)C[C@H](C)/C=C/C=C/C=C/1C` ; system: MV4-11
62.1

---

System: ML-2
assay-overview: cell viability (% survival relative to DMSO control, bortezomib = 0%); higher = less cytotoxic
test-conditions: 1 nM; 72 h
Readings of cell viability for the listed compounds
Expressed in %, but write only the number.

N#Cc1ccc(N(Cc2ccc(Br)cc2)n2cnnc2)cc1 [YM511] = 105
Cn1cc(-c2ccncc2)c(-c2ccc(OCc3ccc4ccccc4n3)cc2)n1 = 101
Cc1cc2c(C(C)C)c(O)c(O)c(C=O)c2c(O)c1-c1c(C)cc2c(C(C)C)c(O)c(O)c(C=O)c2c1O [Gossypol] = 103
O=C(O)CC[N+](=O)[O-] [3-nitropropionic acid] = 104

Provide cell viability, recorded with ML-2, of N#C/C(=C\c1ccc(O)cc1)C(=O)O [alpha-cyano-4-hydroxycinnamic acid]
92.4

---

Test system: KCL-22
assay-overview: cell viability (% survival relative to DMSO control, bortezomib = 0%); higher = less cytotoxic
test-conditions: 1000 nM; 72 h
Entries whose cell viability is below 90% take criterion met; entries at or above 90% take criterion not met.

C[C@]12C=CC(=O)C=C1CC[C@@H]1[C@@H]2[C@@H](O)C[C@@]2(C)[C@H]1CC[C@]2(O)C(=O)CO [Prednisolone] = criterion met

I wonder whether O=C(/C=C/c1ccc(O)c(O)c1)OCCc1ccccc1 [Caffeic acid phenethyl ester] has cell viability below 90%. Can you tell?
criterion met

Criterion: cell viability strictly below 90%. Is it met by N#Cc1ccc(N(Cc2ccc(Br)cc2)n2cnnc2)cc1 [YM511] ?
criterion not met
